tested on: Plasmodium berghei; test: Luciferase/luciferin-expressing antifolate-resistant parasites were used to infect a culture of HepG2 cells that were pre-incubated with compounds. Infected hepatocytes emit light due to the luciferase reaction. Assay results are presented as the percent inhibition of light emission compared to control. […]; format: functional; details: sporozoite, read-out: LUCIFERASE INFECTION ASSAY - IC90
I'd appreciate it if you could supply IC90 values for the items below.
Express the result in µM but write the number alone.

[ask] Please list IC90 recorded for the compound Cc1cc(C)nc(SCC(=O)N2CCN(C(=O)c3ccco3)CC2)n1
[reply] 3.74

[ask] Give IC90 for the following compound: CCCn1c(NC(=O)Cc2coc3cc(OC)ccc23)nc2ccccc21
[reply] 1.31

[ask] Give IC90 for the following compound: Cc1cc(OCC(=O)NCCc2c(C)cc(C(C)(C)C)cc2C)no1
[reply] 6.12

[ask] Identify IC90 associated with the compound N#CCCNS(=O)(=O)c1cccc(C(=O)Nc2ccc(Nc3ccccc3)cc2)c1
[reply] 4.83

[ask] Supply measured IC90 of Cc1cccc(-[n+]2c(C)cc(C=C3Sc4ccc5ccccc5c4N3C)cc2C)c1 in your reply.
[reply] 0.685

[ask] Look up IC90 of O=C(/C=C/c1ccccc1[N+](=O)[O-])c1cccc(C(F)(F)F)c1 and report it.
[reply] 5.08

[ask] Check the records and state IC90 for Cc1cccc(Nc2ccccc2C(=O)OCC(=O)N2CCNC2=O)c1C
[reply] 7.08

[ask] Give reported IC90 value for CC(=O)NC(C)CCc1ccc(C(=O)Cn2ncc(Cl)c(Cl)c2=O)cc1 (stereo unspecified)
[reply] 9.36

[ask] Quickly give me recorded IC90 for Cc1nc2ccc(N/N=C3\C=CC(=O)c4ncccc43)cc2s1
[reply] 4.05

[ask] Respond only with IC90 recorded for COc1ccc(C(=O)Nc2nc3ccc(C)cn3c2C(=O)NC2CCCCC2)cc1
[reply] 3.1

[ask] For the compound CCOC(=O)c1c(-c2ccccc2)oc2ccc(NS(=O)(=O)c3ccc(CC)cc3)cc12 , give its reported IC90.
[reply] 9.53

[ask] Give the reported IC90 for this compound. Cc1cc(C)c(C)c(S(=O)(=O)N2CCC(C(=O)Nc3cc(S(=O)(=O)Nc4ccc(Cl)cc4)ccc3N3CCOCC3)CC2)c1C
[reply] 3.69

[ask] // Input: O=C(NCc1sccc1CSc1ccc(Cl)cc1)Nc1cccc(C(F)(F)F)c1 . Output its IC90 only.
[reply] 5.08
